- Test system: antibodies in sera from SARS patients (sera 1a, 1b, 2, 6, 37, 62, London, SARS-yellow, SARS-green)
- Type: binding, human
Could you please report measured Binding of serum 62 to looped/cyclic peptides of protein X5 of SARS-CoV Urbani for the items listed next?
Just the number, please.

Ask | Reported Binding of serum 62 to looped/cyclic peptides of protein X5 of SARS-CoV Urbani for LVRYNTRGNTYSTAW : what is it?
Reply | 0.6

Ask | Entry under review: ILVRYNTRGNTYSTA . Reported Binding of serum 62 to looped/cyclic peptides of protein X5 of SARS-CoV Urbani?
Reply | 0.8

Ask | Which Binding of serum 62 to looped/cyclic peptides of protein X5 of SARS-CoV Urbani is listed for GNTYSTAWLCALGKV ?
Reply | 0.7

Ask | Would you kindly share the measured Binding of serum 62 to looped/cyclic peptides of protein X5 of SARS-CoV Urbani for RYNTRGNTYSTAWLC ?
Reply | 0.2

Ask | Recorded Binding of serum 62 to looped/cyclic peptides of protein X5 of SARS-CoV Urbani for STAWLCALGKVLPFH , please?
Reply | 0.7

Ask | Query: Binding of serum 62 to looped/cyclic peptides of protein X5 of SARS-CoV Urbani; subject: HRWHTMVQTCTPNVT
Reply | 0.3

----------
- Test system: recombinant human anti-SARS-CoV antibody 03-018
- Assay type: binding
- Set-up: unit not given here
Hi there, I'd appreciate the recorded Binding of antibody 03-018 to looped/cyclic peptides of the N protein of SARS-CoV Urbani for every entry that follows.
Format: numeric value only, no unit, no commentary.

Ask | Consider the sequence shown here: VPINTNSGPDDQIGY What is its recorded Binding of antibody 03-018 to looped/cyclic peptides of the N protein of SARS-CoV Urbani?
Reply | 0.2

Ask | State the recorded Binding of antibody 03-018 to looped/cyclic peptides of the N protein of SARS-CoV Urbani for this entry: RIGMEVTPSGTWLTY
Reply | 0.2

Ask | For ASLPYGANKEGIVWV , what is its reported Binding of antibody 03-018 to looped/cyclic peptides of the N protein of SARS-CoV Urbani?
Reply | 0.3

Ask | Name the recorded Binding of antibody 03-018 to looped/cyclic peptides of the N protein of SARS-CoV Urbani for NTNSGPDDQIGYYRR .
Reply | 0.3

Ask | Looking for the measured Binding of antibody 03-018 to looped/cyclic peptides of the N protein of SARS-CoV Urbani of TPKDHIGTRNPNNNA , can you help?
Reply | 0.2

Ask | Reported Binding of antibody 03-018 to looped/cyclic peptides of the N protein of SARS-CoV Urbani, sequence GTGPEASLPYGANKE : ____
Reply | 0.2

Ask | # input sequence: ASWFTALTQHGKEEL ; wanted: its Binding of antibody 03-018 to looped/cyclic peptides of the N protein of SARS-CoV Urbani
Reply | 0.2

Ask | Data request, read-out Binding of antibody 03-018 to looped/cyclic peptides of the N protein of SARS-CoV Urbani, for KQRRPQGLPNNTASW
Reply | 0.2

Ask | Field request: Binding of antibody 03-018 to looped/cyclic peptides of the N protein of SARS-CoV Urbani | item: AFGRRGPEQTQGNFG
Reply | 0.2

Ask | Consider the sequence shown here: IVWVATEGALNTPKD What is its recorded Binding of antibody 03-018 to looped/cyclic peptides of the N protein of SARS-CoV Urbani?
Reply | 0.2

Ask | What value of measured Binding of antibody 03-018 to looped/cyclic peptides of the N protein of SARS-CoV Urbani is listed for SGPDDQIGYYRRATR ?
Reply | 0.3

Ask | Can you share its Binding of antibody 03-018 to looped/cyclic peptides of the N protein of SARS-CoV Urbani? I mean this sequence: ASAFFGMSRIGMEVT
Reply | 0.2

Ask | I am curious: what Binding of antibody 03-018 to looped/cyclic peptides of the N protein of SARS-CoV Urbani value has been reported for WFTALTQHGKEELRF ?
Reply | 0.2

Ask | Fill in the blank: the reported Binding of antibody 03-018 to looped/cyclic peptides of the N protein of SARS-CoV Urbani of PNNTASWFTALTQHG is ____.
Reply | 0.3

Ask | Quick one: Binding of antibody 03-018 to looped/cyclic peptides of the N protein of SARS-CoV Urbani of RRATRRVRGGDGKMK ?
Reply | 0.2

Ask | So what does the record say about Binding of antibody 03-018 to looped/cyclic peptides of the N protein of SARS-CoV Urbani for GTTLPKGFYAEGSRG ?
Reply | 0.2

Ask | Query: Binding of antibody 03-018 to looped/cyclic peptides of the N protein of SARS-CoV Urbani; subject: GSSRGNSPARMASGG
Reply | 0.2

Ask | For LESKVSGKGQQQQGQ , what is its reported Binding of antibody 03-018 to looped/cyclic peptides of the N protein of SARS-CoV Urbani?
Reply | 0.3

Ask | Field request: Binding of antibody 03-018 to looped/cyclic peptides of the N protein of SARS-CoV Urbani | item: KGQQQQGQTVTKKSA
Reply | 0.2

Ask | Fill in the blank: the reported Binding of antibody 03-018 to looped/cyclic peptides of the N protein of SARS-CoV Urbani of YFYYLGTGPEASLPY is ____.
Reply | 0.2

Ask | What Binding of antibody 03-018 to looped/cyclic peptides of the N protein of SARS-CoV Urbani value was documented for this sequence, RVRGGDGKMKELSPR ?
Reply | 0.2

Ask | I have this sequence here, FFGMSRIGMEVTPSG , and I need its recorded Binding of antibody 03-018 to looped/cyclic peptides of the N protein of SARS-CoV Urbani.
Reply | 0.2

Ask | Item PAADMDDFSRQLQNS has what recorded Binding of antibody 03-018 to looped/cyclic peptides of the N protein of SARS-CoV Urbani?
Reply | 0.2

Ask | Reported Binding of antibody 03-018 to looped/cyclic peptides of the N protein of SARS-CoV Urbani, sequence NSRNSTPGSSRGNSP : ____
Reply | 0.2

Ask | Please give the measured Binding of antibody 03-018 to looped/cyclic peptides of the N protein of SARS-CoV Urbani for this sequence: MSRIGMEVTPSGTWL
Reply | 0.2

Ask | Binding of antibody 03-018 to looped/cyclic peptides of the N protein of SARS-CoV Urbani for LGTGPEASLPYGANK ?
Reply | 0.2

Ask | For the sequence shown here, DNVILLNKHIDAYKT , give the reported Binding of antibody 03-018 to looped/cyclic peptides of the N protein of SARS-CoV Urbani.
Reply | 0.2

Ask | // returns reported Binding of antibody 03-018 to looped/cyclic peptides of the N protein of SARS-CoV Urbani for input GRNGARPKQRRPQGL
Reply | 0.2

Ask | What value of Binding of antibody 03-018 to looped/cyclic peptides of the N protein of SARS-CoV Urbani has been recorded for this entry: RGNSPARMASGGGET
Reply | 0.2

Ask | Value lookup for Binding of antibody 03-018 to looped/cyclic peptides of the N protein of SARS-CoV Urbani; key = PSGTWLTYHGAIKLD
Reply | 0.2

Ask | Entry EAQPLPQRQKKQPTV : reported Binding of antibody 03-018 to looped/cyclic peptides of the N protein of SARS-CoV Urbani = ?
Reply | 0.2

Ask | Can you share its Binding of antibody 03-018 to looped/cyclic peptides of the N protein of SARS-CoV Urbani? I mean this sequence: NGARPKQRRPQGLPN
Reply | 0.3

Ask | Quick one: Binding of antibody 03-018 to looped/cyclic peptides of the N protein of SARS-CoV Urbani of IGYYRRATRRVRGGD ?
Reply | 0.2

Ask | Which Binding of antibody 03-018 to looped/cyclic peptides of the N protein of SARS-CoV Urbani value is on record for KHWPQIAQFAPSASA ?
Reply | 0.2

Ask | Reported Binding of antibody 03-018 to looped/cyclic peptides of the N protein of SARS-CoV Urbani, sequence GGPTDSTDNNQNGGR : ____
Reply | 0.2

Ask | Sample ALNTPKDHIGTRNPN — what was its Binding of antibody 03-018 to looped/cyclic peptides of the N protein of SARS-CoV Urbani?
Reply | 0.2

Ask | What value of Binding of antibody 03-018 to looped/cyclic peptides of the N protein of SARS-CoV Urbani has been recorded for this entry: GAIKLDDKDPQFKDN
Reply | 0.2

Ask | Consider the sequence SPARMASGGGETALA and give its measured Binding of antibody 03-018 to looped/cyclic peptides of the N protein of SARS-CoV Urbani.
Reply | 0.1

----------
- Tested on: antibodies in sera from SARS patients (sera 1a, 1b, 2, 6, 37, 62, London, SARS-yellow, SARS-green)
- Assay type: binding, human
- Design: unit not given here
MEASURED QUANTITY: Binding of serum 2 to looped/cyclic peptides of protein N of SARS-CoV Urbani

Ask | Quick one: Binding of serum 2 to looped/cyclic peptides of protein N of SARS-CoV Urbani for LGTGPEASLPYGANK ?
Reply | 0.5

Ask | Item PKDHIGTRNPNNNAA has what recorded Binding of serum 2 to looped/cyclic peptides of protein N of SARS-CoV Urbani?
Reply | 0.3

Ask | Returns the measured Binding of serum 2 to looped/cyclic peptides of protein N of SARS-CoV Urbani for the input sequence. Input: NGARPKQRRPQGLPN
Reply | 0.3

Ask | Can you share its Binding of serum 2 to looped/cyclic peptides of protein N of SARS-CoV Urbani? I mean this sequence: KKTDEAQPLPQRQKK
Reply | 0.1

Ask | Returns the measured Binding of serum 2 to looped/cyclic peptides of protein N of SARS-CoV Urbani for the input sequence. Input: VILLNKHIDAYKTFP
Reply | 0.3

Ask | Report Binding of serum 2 to looped/cyclic peptides of protein N of SARS-CoV Urbani for AAEASKKPRQKRTAT please.
Reply | 0.2

Ask | Tell me the measured Binding of serum 2 to looped/cyclic peptides of protein N of SARS-CoV Urbani of PDDQIGYYRRATRRV , please.
Reply | 0.6

Ask | Field request: Binding of serum 2 to looped/cyclic peptides of protein N of SARS-CoV Urbani | item: RGNSPARMASGGGET
Reply | 0.4

Ask | What value of Binding of serum 2 to looped/cyclic peptides of protein N of SARS-CoV Urbani has been recorded for this entry: SDNGPQSNQRSAPRI
Reply | 0.3
